Taken from patent EP1166781A1.

# SUBJECT OF TEST: proteasome (Homo sapiens, UniProt P28074)
# Construct: The obtained high molecular fraction (molecular weight >500K) was used as an enzyme solution for the detection of proteasome activity; endogenous in cells; host or cells: HeLa S3 cells: homogenate, 100,000G supernatant, >500K fraction from Centricon-500
# ASSAY EXPLANATION: Proteasome inhibitory activity (Suc-Leu-Leu-Val-Tyr-AMC cleavage, crude enzyme solution from HeLa S3 cell extract)
# Assay type: biochemical
# DETAILS: crude proteasome fraction (>500K) from HeLa S3 cells; substrate Suc-Leu-Leu-Val-Tyr-AMC; 37°C for one hour; read-out: IC50
READOUT KIND: pIC50
Please keep in mind that pIC50 is minus log10 of the molar concentration; only the number is needed.

Challenge: Look up pIC50 for this compound: C=CCOC(=O)C(CC1CC1NC(=O)C1OC(=O)C1C(C)CC)NC(=O)C(C)NC(=O)OC(C)(C)C (centres unmarked)
Response given: 7.59

Challenge: Look up pIC50 for this compound: CCC(C)C1C(=O)OC1C(=O)NC1CC1CC(NC(=O)C(C)NC(=O)CO[Si](C)(C)C(C)(C)C)C(=O)OCc1ccccc1 (centres unmarked)
Response given: 8.22

Challenge: Look up pIC50 for this compound: CCC(C)C1C(=O)OC1C(=O)NC1CC1CC(NC(=O)C(C)NC(=O)OC(C)(C)C)C(=O)OCc1ccc2ccccc2c1 (centres unmarked)
Response given: 8.21

Challenge: Look up pIC50 for this compound: CC(C)=C[C@@H]1C(=O)O[C@H]1C(=O)NCCCC[C@H](NC(=O)[C@H](C)NC(=O)OC(C)(C)C)C(=O)NCc1cccc2ccccc12
Response given: 8.52

Challenge: Look up pIC50 for this compound: CCC(C)C1C(=O)OC1C(=O)NC1CC1CC(NC(=O)C(C)NC(=O)OC(C)(C)C)C(=O)OC(C)(C)C (centres unmarked)
Response given: 7.52

Challenge: Look up pIC50 for this compound: CC(C)CC1C(=O)OC1C(=O)NCCCCC(COC(=O)c1ccccc1)NC(=O)C(C)NC(=O)OC(C)(C)C (centres unmarked)
Response given: 7.66

Challenge: Look up pIC50 for this compound: CCC(C)C1C(=O)OC1C(=O)NC1CC1CC(NC(=O)C(C)NC(=O)OCc1ccccc1)C(=O)OCc1ccccc1 (centres unmarked)
Response given: 8.30

Challenge: Look up pIC50 for this compound: CC(C)C[C@@H]1C(=O)O[C@H]1C(=O)Nc1cc(C[C@H](NC(=O)OC(C)(C)C)C(=O)OCc2ccccc2)ccc1OCc1ccccc1
Response given: 7.00

Challenge: Look up pIC50 for this compound: CCC(C)C1C(=O)OC1C(=O)NC1CC1CC(NC(=O)C(C)N)C(=O)OC (centres unmarked)
Response given: 7.15

Challenge: Look up pIC50 for this compound: CCC(C)C1C(=O)OC1C(=O)NC1CC1CC(NC(=O)C(C)NC(=S)NCc1ccccc1)C(=O)OCc1ccccc1 (centres unmarked)
Response given: 8.30

Challenge: Look up pIC50 for this compound: CCC(C)C1C(=O)OC1C(=O)NC1CC1CC(NC(=O)C(C)NC(=O)NCc1ccccc1)C(=O)OCc1ccccc1 (centres unmarked)
Response given: 8.40

Challenge: Look up pIC50 for this compound: C=CCOC(=O)C(CC1CC1NC(=O)C1OC(=O)C1C(C)CC)NC(=O)C(C)N (centres unmarked)
Response given: 7.34

Challenge: Look up pIC50 for this compound: CCC(C)C1C(=O)OC1C(=O)NC1CC1CC(NC(=O)C(C)NS(=O)(=O)c1ccccc1)C(=O)OCc1ccccc1 (centres unmarked)
Response given: 8.10

Challenge: Look up pIC50 for this compound: CCC(C)C1C(=O)OC1C(=O)NC1CC1CC(NC(=O)C(C)NC(=O)OC(C)(C)C)C(=O)N1CCOCC1 (centres unmarked)
Response given: 7.89
